Ref: patent US11332470B2

Experiment: Mouse brain uptake assay (pharmacokinetics and brain penetration after IV administration)
Type: in vivo, Male CD1 Mice
Details: male, CD1, plasma; mouse, 3 mg/kg IV, 0-24 h, 4 time points; read-out: Cl (Clearance) (converted)
# clearance annotations

Exercise: Entry Cc1cccnc1C1CCCN1Cc1nc2cccc(N3CCN(C4CC4)CC3)c2[nH]1 (centres unmarked) [Compound I-31] has what clearance?
Key: 235 mL/min/kg

Consider now this further compound.
Exercise: Entry Cc1cccnc1C1CCCN1Cc1cn2c(N3CCN(C)C4(CC4)C3)cccc2n1 (centres unmarked) [Compound I-29] has what clearance?
Key: 66.8 mL/min/kg

----------
Target: CXCR4 (Jurkat cells expressing CXCR4) (Homo sapiens, UniProt P61073)
Construct: Jurkat cells expressing CXCR4; endogenous in cells
Sequence (P61073 whole entry): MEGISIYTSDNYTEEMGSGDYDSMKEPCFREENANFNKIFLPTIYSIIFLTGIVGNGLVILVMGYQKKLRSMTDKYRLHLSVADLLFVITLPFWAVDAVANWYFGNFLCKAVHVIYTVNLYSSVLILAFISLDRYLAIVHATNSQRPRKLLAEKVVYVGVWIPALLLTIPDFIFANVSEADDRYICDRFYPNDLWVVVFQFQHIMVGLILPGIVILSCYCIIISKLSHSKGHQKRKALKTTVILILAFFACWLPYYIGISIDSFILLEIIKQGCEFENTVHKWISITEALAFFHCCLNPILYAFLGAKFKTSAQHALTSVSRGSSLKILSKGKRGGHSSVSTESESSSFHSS
Assay: Chemokine (CXCL12-AF647) binding inhibition assay
Conditions: CXCL12-AF647 25 ng/mL, read-out: IC50 CXCL-12 binding Jurkat
# IC50 annotations

Sample answers from the record:
Exercise: Entry CN1CCN(C(=O)c2c(CN3CCCC3c3ccccn3)nc3ccccn23)CC1 (stereo not shown) has what IC50?
Key: 100 to 1000 nM

Exercise: Entry CN1CCN(c2cccc3nc(C4CCCCN4Cc4ccccc4-n4cccn4)[nH]c23)CC1 (stereo not shown) has what IC50?
Key: ≥ 1000 nM

Exercise: Entry c1ccc(C2CCCN2Cc2nc3ccccn3c2-c2ccncc2)nc1 (stereo not shown) has what IC50?
Key: 100 to 1000 nM

Exercise: Entry Cc1cccnc1C1CCCN1Cc1nccn1Cc1cccnc1 (stereo not shown) has what IC50?
Key: 100 to 1000 nM

Exercise: Entry CN1CCN(c2cccc3nc(CN4CCCC4c4ncccc4Cl)cn23)CC1 (stereo not shown) has what IC50?
Key: 0.01 to 100 nM

Exercise: Entry CN1CCN(c2c(CN3CCCC3c3ccccn3)nc3ccccn23)CC1 (stereo not shown) has what IC50?
Key: 0.01 to 100 nM

Exercise: Entry Cc1cccnc1C1CCCN1Cc1nccn1Cc1ccccn1 (stereo not shown) has what IC50?
Key: 100 to 1000 nM

Exercise: Entry Cc1cccnc1C1CCCN1Cc1nccn1Cc1ccncc1 (stereo not shown) has what IC50?
Key: 100 to 1000 nM

***
Exercise: Entry CN1CCN(c2cccc3nc(CN4CCCC4c4ncc[nH]4)cn23)CC1 (stereo not shown) has what IC50?
Key: ≥ 1000 nM

Exercise: Entry Cc1cccnc1C1CCCN1Cc1nccn1-c1ccncc1 (stereo not shown) has what IC50?
Key: 100 to 1000 nM
